These entries and their values trace back to the supplement of paper PMC13380429.

- Test system: HepG2
- assayMethodText: cell viability relative to DMSO; higher = less toxic
- condition: 72 h; 1000 nM
readoutLabel: cell viability (%)

{"molecule": "O=C(c1ccc(F)cc1)C1CCN(CCn2c(=O)[nH]c3ccccc3c2=O)CC1", "readoutLabel": "cell viability", "unitsLabel": "%", "valueObserved": 102}
{"molecule": "COC(=O)N1CC[C@@H]2[C@H]1CCC[C@@]2(O)C#Cc1cccc(C)c1", "readoutLabel": "cell viability", "unitsLabel": "%", "valueObserved": 91.8}
{"molecule": "Nc1ncnc2c1c(COc1cccc(Cl)c1)nn2C1CCOCC1", "readoutLabel": "cell viability", "unitsLabel": "%", "valueObserved": 91.8}
{"molecule": "CC[N+](CC)(CCNC(=O)C(=O)NCC[N+](CC)(CC)Cc1ccccc1Cl)Cc1ccccc1Cl", "readoutLabel": "cell viability", "unitsLabel": "%", "valueObserved": 100}
{"molecule": "S=C=Nc1cccc(NC(=S)NCCCCNC(=S)Nc2cccc(N=C=S)c2)c1", "readoutLabel": "cell viability", "unitsLabel": "%", "valueObserved": 97.7}
{"molecule": "Cn1cc(C[C@@H](N)C(=O)O)c2ccccc21", "readoutLabel": "cell viability", "unitsLabel": "%", "valueObserved": 118}
{"molecule": "Cc1ncc(OC[C@@]2(c3cccc(F)c3)C[C@H]2C(=O)Nc2ccc(F)cn2)c(C)n1", "readoutLabel": "cell viability", "unitsLabel": "%", "valueObserved": 97.9}
{"molecule": "CC(C)NCC(O)c1ccc2ccccc2c1 (configuration not stated)", "readoutLabel": "cell viability", "unitsLabel": "%", "valueObserved": 87}
{"molecule": "Cc1ccc(C(=O)C(C)CN2CCCCC2)cc1 (configuration not stated)", "readoutLabel": "cell viability", "unitsLabel": "%", "valueObserved": 102}
{"molecule": "CCCCNNC(=O)c1ccc(Br)cc1", "readoutLabel": "cell viability", "unitsLabel": "%", "valueObserved": 88}
{"molecule": "O=C(O)CCCCN(CCc1ccccc1OCc1ccc(CCc2ccccc2)cc1)Cc1ccc(C(=O)O)cc1", "readoutLabel": "cell viability", "unitsLabel": "%", "valueObserved": 109}
{"molecule": "O=C(O)CC/C=C\\C[C@@H]1CO[C@H](c2ccccc2Cl)O[C@@H]1c1ccccc1O (racemic)", "readoutLabel": "cell viability", "unitsLabel": "%", "valueObserved": 108}
{"molecule": "Oc1ccc2c(c1)CC[C@H](c1ccccc1)[C@@H]2c1ccc(OCCN2CCCC2)cc1", "readoutLabel": "cell viability", "unitsLabel": "%", "valueObserved": 93.8}
{"molecule": "C1CCN2C[C@@H]3C[C@@H](CN4CCCC[C@@H]34)[C@H]2C1 [sparteine-sulfate]", "readoutLabel": "cell viability", "unitsLabel": "%", "valueObserved": 89}
{"molecule": "Cn1cncc1[C@@](N)(c1ccc(Cl)cc1)c1ccc2c(c1)c(-c1cccc(Cl)c1)cc(=O)n2C", "readoutLabel": "cell viability", "unitsLabel": "%", "valueObserved": 63.5}
{"molecule": "Cc1cc2nc3c(=O)[nH]c(=O)nc-3n(C[C@H](O)[C@H](O)[C@H](O)COP(=O)(O)O)c2cc1C [riboflavin-5-phosphate-sodium]", "readoutLabel": "cell viability", "unitsLabel": "%", "valueObserved": 98}
{"molecule": "CCC[C@@]1(CCc2ccccc2)CC(O)=C([C@H](CC)c2cccc(NS(=O)(=O)c3ccc(C(F)(F)F)cn3)c2)C(=O)O1", "readoutLabel": "cell viability", "unitsLabel": "%", "valueObserved": 103}

====

- Tested on: Vero E6
- assayMethodText: cell viability relative to DMSO; higher = less toxic
- condition: 72 h; 1 nM
cell viability overview

{"compound": "O=C(Nc1cccc(C(F)(F)F)c1)Nc1cc(S(=O)(=O)NC2CC2)ccc1-c1ccsc1", "unitsLabel": "%", "cell viability": 95.1}
{"compound": "CC(C)(C)NCc1cc(Nc2ccnc3cc(Cl)ccc23)c2c(c1O)CCCC2 [naphthoquine-phosphate]", "unitsLabel": "%", "cell viability": 106}
{"compound": "CC(C)[C@H](CO)Nc1nc(Nc2ccc(C(=O)O)c(Cl)c2)c2ncn(C(C)C)c2n1", "unitsLabel": "%", "cell viability": 94}
{"compound": "C[C@H](CCC(=O)O)[C@H]1CC[C@H]2[C@@H]3[C@H](O)C[C@@H]4C[C@H](O)CC[C@]4(C)[C@H]3C[C@H](O)[C@]12C", "unitsLabel": "%", "cell viability": 102}

====

- Tested on: Caco-2
- assayMethodText: cell viability relative to DMSO; higher = less toxic
- condition: 72 h; 1 nM
readoutLabel: cell viability (%)

{"molecule": "OCc1cncc(F)c1", "valueObserved": 96}
{"molecule": "CCOc1ccc2nc3cc(N)ccc3c(N)c2c1 [ethacridine-lactate-monohydrate]", "valueObserved": 97.4}
{"molecule": "COc1ccc2[nH]c([S@@+]([O-])Cc3ncc(C)c(OC)c3C)nc2c1", "valueObserved": 97.2}
{"molecule": "C[N+]1(C)[C@@H]2CC[C@H]1C[C@@H](OC(=O)C(O)c1ccccc1)C2 (some centres undefined) [homatropine-methylbromide]", "valueObserved": 100}

====

- System: Caco-2
- assayMethodText: cell viability relative to DMSO; higher = less toxic
- condition: 72 h; 10 nM

{"compound": "CN[C@H](C(=O)N[C@H](C(=O)N(C)[C@H](/C=C(\\C)C(=O)O)C(C)C)C(C)(C)C)C(C)(C)c1ccccc1", "measuredOn": "Caco-2", "cell viability / %": 45.6}
{"compound": "Clc1ccc2c(c1)N=C(N1CCNCC1)c1ccccc1N2", "measuredOn": "Caco-2", "cell viability / %": 94.2}
{"compound": "COc1ccc2c(c1)C(=O)N(CCc1ccc(S(=O)(=O)NC(=O)NC3CCCCC3)cc1)C(=O)C2(C)C", "measuredOn": "Caco-2", "cell viability / %": 95.3}
{"compound": "CCCCCCCCCCCCCCCC(=O)OC[C@H](O)[C@H]1OC(=O)C(O)=C1O [L-ascorbyl-6-palmitate]", "measuredOn": "Caco-2", "cell viability / %": 100}
{"compound": "CC(C)c1nc(N(C)S(C)(=O)=O)nc(-c2ccc(F)cc2)c1/C=C/[C@@H](O)C[C@@H](O)CC(=O)O", "measuredOn": "Caco-2", "cell viability / %": 105}
{"compound": "CCNCCCNCCCCNCCCNCC", "measuredOn": "Caco-2", "cell viability / %": 86.3}
{"compound": "COc1ccc2c(c1OC)C(=O)O[C@@H]2[C@H]1c2c(cc3c(c2OC)OCO3)CCN1C", "measuredOn": "Caco-2", "cell viability / %": 109}
{"compound": "C#C[C@]1(O)CC[C@H]2[C@@H]3CCC4=CC(=O)CC[C@@H]4[C@H]3C(=C)C[C@@]21CC", "measuredOn": "Caco-2", "cell viability / %": 75.4}
{"compound": "O=C(c1ccc(OCCCc2c[nH]cn2)cc1)C1CC1", "measuredOn": "Caco-2", "cell viability / %": 97.1}
{"compound": "O=C1NC(=O)/C(=C/c2ccc3nccc(-c4ccncc4)c3c2)S1", "measuredOn": "Caco-2", "cell viability / %": 96.2}
{"compound": "NCCC(Oc1ccc(C(F)(F)F)cc1)c1ccccc1 (stereo not drawn)", "measuredOn": "Caco-2", "cell viability / %": 104}
{"compound": "Cc1nccc2c1[nH]c1ccccc12", "measuredOn": "Caco-2", "cell viability / %": 101}
{"compound": "CCCCCCCCCCCCCCOc1ccc(C(=O)O)o1", "measuredOn": "Caco-2", "cell viability / %": 92.9}
{"compound": "C=CC(=O)N1CCC(Oc2cc3c(Nc4ccc(Cl)c(Cl)c4F)ncnc3cc2OC)CC1", "measuredOn": "Caco-2", "cell viability / %": 86.5}
{"compound": "CCCCCCCCCCCCCCCCCCCCCCCCC(=O)O", "measuredOn": "Caco-2", "cell viability / %": 106}
{"compound": "CN(C)CC(=O)Nc1ccc2[nH]c(=O)c3ccccc3c2c1", "measuredOn": "Caco-2", "cell viability / %": 101}
{"compound": "COC1=CC(=O)C[C@@H](C)[C@]12Oc1c(Cl)c(OC)cc(OC)c1C2=O", "measuredOn": "Caco-2", "cell viability / %": 88.5}
{"compound": "COCCNC(=O)COc1ccc(OCCNC[C@H](O)COc2ccccc2)cc1", "measuredOn": "Caco-2", "cell viability / %": 95.1}

====

Listed here are compounds together with their documented cell viability.
- System: Caco-2
- assayMethodText: cell viability relative to DMSO; higher = less toxic
- condition: 72 h; 100 nM
readoutLabel: cell viability (%)

{"compound": "Cc1ccc(Cl)c(Nc2ccccc2C(=O)O)c1Cl [meclofenamic-acid]", "unitsLabel": "%", "valueObserved": 95.8}
{"compound": "N=C(N)NCCCC[C@@H]1NC(=O)CCSSC[C@@H](C(N)=O)NC(=O)[C@@H]2CCCN2C(=O)[C@H](Cc2c[nH]c3ccccc23)NC(=O)[C@H](CC(=O)O)NC(=O)CNC1=O [eptifibatide]", "unitsLabel": "%", "valueObserved": 85.8}
{"compound": "O=C(NC1(c2ccccc2)CC1)c1c(CN2CCC(N3CCCCC3)CC2)c(-c2cccc(C(F)(F)F)c2)nc2cc(Br)ccc12", "unitsLabel": "%", "valueObserved": 112}
{"compound": "CC(N)CCCC(C)(C)O (stereo not drawn) [heptaminol]", "unitsLabel": "%", "valueObserved": 96.7}
{"compound": "CCC(=O)OCC(=O)[C@@]1(OC(=O)CC)[C@@H](C)C[C@H]2[C@@H]3CCC4=CC(=O)C=C[C@]4(C)[C@@]3(Cl)[C@@H](O)C[C@@]21C [beclomethasone-dipropionate]", "unitsLabel": "%", "valueObserved": 94.3}
{"compound": "N=C1CCCN1Cc1[nH]c(=O)[nH]c(=O)c1Cl [tipiracil]", "unitsLabel": "%", "valueObserved": 93.2}
{"compound": "O=[N+]([O-])c1cc2nc(O)c(O)nc2cc1[N+](=O)[O-] [DNQX]", "unitsLabel": "%", "valueObserved": 97.4}
{"compound": "Fc1ccc(C(OCCN2CCN(CCCc3ccccc3)CC2)c2ccc(F)cc2)cc1 [vanoxerine]", "unitsLabel": "%", "valueObserved": 99.9}
